# Test system: UO-31 renal
# method.description: NCI-60 one-dose screen, 48 h (100 = growth as untreated, 0 = no growth, -100 = all killed)
# conditions: 10 µM unless noted
About 83,000 compounds went through this panel and 20% of them were active in at least one assay; those are over-represented in the sample as a whole.
Reported growth values follow for various molecules
Kindly provide the numeric value in % only, without the unit symbol.

Example results:
{"mol": "COc1ccc(-c2cnoc2-c2ccc(OC)cc2O)cc1", "measurement.label": "growth", "numeric.value": 74.5}
{"mol": "COc1ccc(-c2nc(/C=C3/C(=O)Nc4ccc(F)cc43)c3ccccn23)cc1", "measurement.label": "growth", "numeric.value": 97}
{"mol": "CCC(=O)Oc1ccc(/C(=C(/C)Cc2cccc(OC)c2)c2ccc(OCCN(C)C)cc2)cc1", "measurement.label": "growth", "numeric.value": 67.4}
{"mol": "C=C(C)[C@@H]1C[C@@H]2Cc3ccc(Cl)c(C)c3N1O2", "measurement.label": "growth", "numeric.value": 99.3}

Attention now turns to another entry.
Task: Find the measured growth of COc1ccc(S(=O)(=O)Nc2cc(/C=C\c3cc(OC)c(OC)c(OC)c3)cc(OC)c2OC)cc1 and report it.
Result: 21
